Exercise: state measured viability, T/C for each of the molecules provided.
System: 743489-274-T-PDC complex spheroid growth
Assay explanation: Anticancer human tumor 743489-274-T-PDC patient-derived renal cell carcinoma cell line growth inhibition [AhR]
Condition parameters: second compound 0.316 µM; first compound 0.0316 µM; stronger effect = lower value
Numbers only, in %.

Solved cases below.
[
  {
    "Molecule": "Nc1ccn(C2OC(CO)C(O)C2(F)F)c(=O)n1 (stereo unspecified) + Cc1cncc(-c2nc(NCCc3c[nH]c4ccccc34)c3ncn(C(C)C)c3n2)c1",
    "System name": "743489-274-T-PDC complex spheroid growth",
    "Value units": "%",
    "viability, T/C": 87.1
  },
  {
    "Molecule": "NS(=O)(=O)OCC1CC(n2ccc3c(NC4CCc5ccccc54)ncnc32)CC1O (stereo unspecified) + CC(CO)NC(=O)c1cc(-c2ccc(Cl)cc2)nn(-c2cnn(C)c2)c1=O",
    "System name": "743489-274-T-PDC complex spheroid growth",
    "Value units": "%",
    "viability, T/C": 86.1
  },
  {
    "Molecule": "O=C(c1cc(Cc2n[nH]c(=O)c3ccccc23)ccc1F)N1CCN(C(=O)C2CC2)CC1 + Cc1cncc(-c2nc(NCCc3c[nH]c4ccccc34)c3ncn(C(C)C)c3n2)c1",
    "System name": "743489-274-T-PDC complex spheroid growth",
    "Value units": "%",
    "viability, T/C": 87.1
  },
  {
    "Molecule": "CC1COCCN1c1cc(-c2ccnn2C)c2ccnc(-c3ccn[nH]3)c2n1 (stereo unspecified) + Cc1cncc(-c2nc(NCCc3c[nH]c4ccccc34)c3ncn(C(C)C)c3n2)c1",
    "System name": "743489-274-T-PDC complex spheroid growth",
    "Value units": "%",
    "viability, T/C": 109
  },
  {
    "Molecule": "O=C(C=Cc1cccc(S(=O)(=O)Nc2ccccc2)c1)NO + CC(CO)NC(=O)c1cc(-c2ccc(Cl)cc2)nn(-c2cnn(C)c2)c1=O",
    "System name": "743489-274-T-PDC complex spheroid growth",
    "Value units": "%",
    "viability, T/C": 82.4
  }
]

Q: Short answer please: viability, T/C, 743489-274-T-PDC complex spheroid growth, entry NS(=O)(=O)OCC1CC(n2ccc3c(NC4CCc5ccccc54)ncnc32)CC1O (stereo unspecified) + Cc1cncc(-c2nc(NCCc3c[nH]c4ccccc34)c3ncn(C(C)C)c3n2)c1
Result: 93.2

====

System: 743489-274-T-PDC complex spheroid growth
Assay explanation: Anticancer human tumor 743489-274-T-PDC cell line growth inhibition [AhR];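 also: spheroids exposed to agents for 7 days before readout; 100% = DMSO vehicle control wells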
Condition parameters: second compound 1 µM; first compound 0.316 µM; stronger effect = lower value
Exercise: state measured viability, T/C for each of the compounds provided.
Answers are plain numbers, in %.

Quick one: give me viability, T/C for each item below, same order please.
1. CC1COCCN1c1cc(-c2ccnn2C)c2ccnc(-c3ccn[nH]3)c2n1 (configuration not stated) + Cc1ccccc1N=Nc1ccc(NC(=O)c2ccnn2C)c(C)c1
2. CC(C)c1c(-c2ccccc2)nc2c(C#N)c[nH]n2c1=O + CC(CO)NC(=O)c1cc(-c2ccc(Cl)cc2)nn(-c2cnn(C)c2)c1=O

Result:
88.2
97.5

Quick one: give me viability, T/C for each item below, same order please.
1. CC1(C)CCC(CN2CCN(c3ccc(C(=O)NS(=O)(=O)c4ccc(NCC5CCOCC5)c([N+](=O)[O-])c4)c(Oc4cnc5[nH]ccc5c4)c3)CC2)=C(c2ccc(Cl)cc2)C1 + CC(CO)NC(=O)c1cc(-c2ccc(Cl)cc2)nn(-c2cnn(C)c2)c1=O
2. Nc1ccccc1NC(=O)c1ccc(CNC(=O)OCc2cccnc2)cc1 + CC(CO)NC(=O)c1cc(-c2ccc(Cl)cc2)nn(-c2cnn(C)c2)c1=O
3. CC1COCCN1c1cc(-c2ccnn2C)c2ccnc(-c3ccn[nH]3)c2n1 (configuration not stated) + Cc1cncc(-c2nc(NCCc3c[nH]c4ccccc34)c3ncn(C(C)C)c3n2)c1
4. CC(C)c1c(-c2ccccc2)nc2c(C#N)c[nH]n2c1=O + Cc1cncc(-c2nc(NCCc3c[nH]c4ccccc34)c3ncn(C(C)C)c3n2)c1
5. COc1ccc([C@@H](O)c2cc(-c3ncnc4cc(N5CCOCC5)ccc34)c(F)cc2Cl)nn1 + Cc1ccccc1N=Nc1ccc(NC(=O)c2ccnn2C)c(C)c1
6. O=C(c1cc(Cc2n[nH]c(=O)c3ccccc23)ccc1F)N1CCN(C(=O)C2CC2)CC1 + Cc1cncc(-c2nc(NCCc3c[nH]c4ccccc34)c3ncn(C(C)C)c3n2)c1

Result:
1. 98.1
2. 80.5
3. 102
4. 111
5. 86.5
6. 94.5

Quick one: give me viability, T/C for each item below, same order please.
1. COc1cccc2c1C(=O)c1c(O)c3c(c(O)c1C2=O)CC(O)(C(=O)CO)CC3OC1CC(N)C(O)C(C)O1 (configuration not stated) + Cc1ccccc1N=Nc1ccc(NC(=O)c2ccnn2C)c(C)c1
2. Nc1ncn(C2CC(O)C(CO)O2)c(=O)n1 (configuration not stated) + CC(CO)NC(=O)c1cc(-c2ccc(Cl)cc2)nn(-c2cnn(C)c2)c1=O
3. COc1ccc([C@@H](O)c2cc(-c3ncnc4cc(N5CCOCC5)ccc34)c(F)cc2Cl)nn1 + CC(CO)NC(=O)c1cc(-c2ccc(Cl)cc2)nn(-c2cnn(C)c2)c1=O
4. O=C(C=Cc1cccc(S(=O)(=O)Nc2ccccc2)c1)NO + Cc1cncc(-c2nc(NCCc3c[nH]c4ccccc34)c3ncn(C(C)C)c3n2)c1

Result:
[98.6, 101, 88.2, 88.4]
